# Method Description: in vivo
# Measurement Conditions: female, BALB/c nu/nu, mouse, tumour and liver, iv, total radioactivity
Where a SMILES comes first, the peptide text is derived from it. [ ]: non-standard residue; d: D form. Tyr(3-I) = N[C@@H](Cc1ccc(O)c(I)c1)C(=O)O; Sta = CC(C)C[C@H](N)[C@@H](O)CC(=O)O; AEEA = NCCOCCOCC(=O)O
Value Type: tissue to tissue ratio at 3 h

Inquiry: Hello, please tell me recorded tissue to tissue ratio at 3 h for this one: CC(C)C[C@H](NC(=O)C[C@H](O)[C@H](CC(C)C)NC(=O)[C@H](Cc1c[nH]cn1)NC(=O)CNC(=O)[C@@H](NC(=O)[C@H](C)NC(=O)[C@H](Cc1c[nH]c2ccccc12)NC(=O)[C@H](CCC(N)=O)NC(=O)[C@@H](Cc1ccccc1)NC(=O)COCCOCCNC(=O)[C@@H](N)Cc1ccc(O)c(I)c1)C(C)C)C(N)=O [[^125I]I-Tyr-PEG2-RM26] (H-[Tyr(3-I)][AEEA][dF]QWAVGH[Sta]L-NH2)
Reply text: 0.8

---

Consider the following compounds; for each one, report its tissue uptake at 0.5 h.
# Method Description: in vivo
# Measurement Conditions: mouse, bone, iv, 40 pmol, Uptake, bone, 0.5 h after injection; 40 pmol i.v.
Where a SMILES comes first, the peptide text is derived from it. [ ]: non-standard residue; d: D form. Tyr(3-I) = N[C@@H](Cc1ccc(O)c(I)c1)C(=O)O; Sta = CC(C)C[C@H](N)[C@@H](O)CC(=O)O; AEEA = NCCOCCOCC(=O)O
# number only, unit %ID/g dropped from output

Inquiry: Hello, please tell me recorded tissue uptake at 0.5 h for this one: CC(C)C[C@H](NC(=O)C[C@H](O)[C@H](CC(C)C)NC(=O)[C@H](Cc1c[nH]cn1)NC(=O)CNC(=O)[C@@H](NC(=O)[C@H](C)NC(=O)[C@H](Cc1c[nH]c2ccccc12)NC(=O)[C@H](CCC(N)=O)NC(=O)[C@@H](Cc1ccccc1)NC(=O)COCCOCCNC(=O)CN1CCN(CC(=O)O)CCN(CC(=O)O)CCN(CC(=O)O)CC1)C(C)C)C(N)=O [[^111In]In-DOTA-PEG2-RM26, metal not drawn, reference compound]
Reply text: 0.6

Inquiry: Hello, please tell me recorded tissue uptake at 0.5 h for this one: CC(C)C[C@H](NC(=O)C[C@H](O)[C@H](CC(C)C)NC(=O)[C@H](Cc1c[nH]cn1)NC(=O)CNC(=O)[C@@H](NC(=O)[C@H](C)NC(=O)[C@H](Cc1c[nH]c2ccccc12)NC(=O)[C@H](CCC(N)=O)NC(=O)[C@@H](Cc1ccccc1)NC(=O)COCCOCCNC(=O)[C@@H](N)Cc1ccc(O)c(I)c1)C(C)C)C(N)=O [[^125I]I-Tyr-PEG2-RM26] (H-[Tyr(3-I)][AEEA][dF]QWAVGH[Sta]L-NH2)
Reply text: 3.8

---

# Method Description: in vivo
# Measurement Conditions: female, BALB/c nu/nu, mouse, tumour and lung, iv, total radioactivity
Where a SMILES comes first, the peptide text is derived from it. [ ]: non-standard residue; d: D form. Tyr(3-I) = N[C@@H](Cc1ccc(O)c(I)c1)C(=O)O; Sta = CC(C)C[C@H](N)[C@@H](O)CC(=O)O; AEEA = NCCOCCOCC(=O)O
Value Type: tissue to tissue ratio at 0.5 h
Just the number.

Inquiry: Hello, please tell me recorded tissue to tissue ratio at 0.5 h for this one: CC(C)C[C@H](NC(=O)C[C@H](O)[C@H](CC(C)C)NC(=O)[C@H](Cc1c[nH]cn1)NC(=O)CNC(=O)[C@@H](NC(=O)[C@H](C)NC(=O)[C@H](Cc1c[nH]c2ccccc12)NC(=O)[C@H](CCC(N)=O)NC(=O)[C@@H](Cc1ccccc1)NC(=O)COCCOCCNC(=O)[C@@H](N)Cc1ccc(O)c(I)c1)C(C)C)C(N)=O [[^125I]I-Tyr-PEG2-RM26] (H-[Tyr(3-I)][AEEA][dF]QWAVGH[Sta]L-NH2)
Reply text: 0.8
